assay.system: HU alpha (Escherichia coli, UniProt P0ACF0 1-90)
Sequence (P0ACF0 whole entry): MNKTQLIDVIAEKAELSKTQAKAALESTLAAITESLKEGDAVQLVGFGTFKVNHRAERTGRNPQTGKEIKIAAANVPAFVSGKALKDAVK
measurement.notes: EMSA; 20 mM Tris-HCl pH 8.0, 150 mM NaCl, 7% glycerol; 15 min; labelled DNA 10.5 nM; gel in 100 mM Tris-borate; temperature not stated
details: protein: recombinant; tags: N-terminal 6xHisTEV removed by TEV protease; chain copies: 2; label: 5'-HEX on strand 1; 3' overhang 28 nt
experimental.readout: pKd
When answering, recall that pKd equals minus log10 of the concentration in mol/L, and write that number alone.

Q. Please list pKd recorded for the binder overhang (ov) (structured_DNA) DNA 1: AGTCTAGAGTGCAGTTGAGTCCTTGCTACGACGGATCCCTTAGGTCAG DNA 2: ACTCAACTGCACTCTAGACT
A. 7.30
